Target: T1, human ferroportin (SLC40A1) fused in frame with the GFP protein, stably expressed in HEK293 cells (human, UniProt Q9NP59 1-571)
T1 sequence (looked up): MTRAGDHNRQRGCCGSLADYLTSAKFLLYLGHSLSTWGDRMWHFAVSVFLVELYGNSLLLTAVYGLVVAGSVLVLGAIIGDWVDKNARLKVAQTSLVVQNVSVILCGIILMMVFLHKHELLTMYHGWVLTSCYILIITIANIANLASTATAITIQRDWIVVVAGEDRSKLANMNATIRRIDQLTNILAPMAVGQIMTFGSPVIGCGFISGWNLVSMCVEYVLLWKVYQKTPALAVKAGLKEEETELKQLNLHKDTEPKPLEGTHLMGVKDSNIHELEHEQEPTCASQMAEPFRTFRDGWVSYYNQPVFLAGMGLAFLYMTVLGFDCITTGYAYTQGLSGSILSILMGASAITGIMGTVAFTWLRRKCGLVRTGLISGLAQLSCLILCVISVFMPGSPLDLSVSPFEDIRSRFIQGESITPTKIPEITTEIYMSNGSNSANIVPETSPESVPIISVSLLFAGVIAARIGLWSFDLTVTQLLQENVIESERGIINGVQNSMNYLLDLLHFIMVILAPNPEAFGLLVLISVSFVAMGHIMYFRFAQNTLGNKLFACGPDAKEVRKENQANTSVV
Experiment: cell-based or functional assay
Non-standard residues stand in square brackets, D forms with d. *: point of attachment. Isovaleryl = CC(C)CC(=O)*
Parameter FPN IC50: see the listing below.
measure-name: FPN IC50 (nM)

[[record]]
binder = "DTHFPCIKX (N-terminal isovaleric acid on each monomer; b-homoPhe 9; the two monomers linked through IDA-[(b-Ala)-Palm]; -NH2) [Compd ID 516]"
measure_name = "FPN IC50"
unit = "nM"
reported_result = 6

[[record]]
binder = "DTHFPCIKX (not fully specified; N-terminal isovaleric acid on each monomer; D-Lys 8; b-homoPhe 9; the two monomers linked through IDA-[(b-Ala)-Palm]; -NH2) [Compd ID 517]"
measure_name = "FPN IC50"
unit = "nM"
reported_result = 5

[[record]]
binder = "Isovaleryl-DTHFPCI[dK]F-{IDA(βAla-Palm)-NH2} (also: dimer: two monomers joined through IDA) [Compd ID 506]"
measure_name = "FPN IC50"
unit = "nM"
reported_result = 4

[[record]]
binder = "DTHFPCIKX (N-terminal isovaleric acid on each monomer; a-MePhe 9; the two monomers linked through IDA-[(b-Ala)-Palm]; -NH2) [Compd ID 508]"
measure_name = "FPN IC50"
unit = "nM"
reported_result = 9

[[record]]
binder = "DTHXPCIKX (N-terminal isovaleric acid on each monomer; BIP 4; D-Lys 8; NMe-Phe 9; the two monomers linked through IDA-[(b-Ala)-Palm]; -NH2) [Compd ID 515]"
measure_name = "FPN IC50"
unit = "nM"
reported_result = 26

[[record]]
binder = "DTHFPCIKX (N-terminal isovaleric acid on each monomer; D-Lys 8; NMe-Phe 9; the two monomers linked through IDA-[(b-Ala)-Palm]; -NH2) [Compd ID 514]"
measure_name = "FPN IC50"
unit = "nM"
reported_result = 4

[[record]]
binder = "Isovaleryl-DTHFPCIK[Phe(4-OCH2CH2NH2)]K-{Lys(isoGlu-Palm)-NH2} (also: dimer: two monomers linked through K-Lys[isoGlu-Palm]-NH2) [Compd ID 504]"
measure_name = "FPN IC50"
unit = "nM"
reported_result = 20

